Every entry's value here was drawn from patent US20230348369A1.

target: human NAMPT (Homo sapiens); assay: Human recombinant enzyme assay (NMN fluorescence biochemical assay, activation of NAMPT); settings: Table A; human recombinant NAMPT, NMN formation, 60 min
Sequence (P43490 whole entry): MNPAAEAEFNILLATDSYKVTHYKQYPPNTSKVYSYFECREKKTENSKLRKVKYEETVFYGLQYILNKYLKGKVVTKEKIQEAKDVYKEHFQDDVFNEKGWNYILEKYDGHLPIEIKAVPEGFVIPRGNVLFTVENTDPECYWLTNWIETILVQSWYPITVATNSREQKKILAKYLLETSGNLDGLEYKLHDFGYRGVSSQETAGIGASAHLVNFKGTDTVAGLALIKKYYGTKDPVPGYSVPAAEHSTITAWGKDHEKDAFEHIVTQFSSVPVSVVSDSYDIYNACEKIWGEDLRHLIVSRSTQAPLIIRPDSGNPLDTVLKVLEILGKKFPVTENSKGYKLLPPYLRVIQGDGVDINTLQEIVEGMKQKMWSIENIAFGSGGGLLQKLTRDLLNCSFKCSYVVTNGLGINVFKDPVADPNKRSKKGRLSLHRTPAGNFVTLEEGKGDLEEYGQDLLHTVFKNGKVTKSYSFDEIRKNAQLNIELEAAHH
propertyMeasured: AC1.4 Human (µM)

Past entries and their recorded results:
• O=C(NCCCCC1CCN(C(=O)c2ccno2)CC1)NCc1ccc(Cl)cc1 = 0.4
• CS(=O)(=O)c1cccc(C(=O)NC2CC3(CC(NC(=O)NCc4ccc(Cl)cc4)C3)C2)c1 (centres unmarked) = 17.1
• COc1ccc(CNC(=O)NC2CC3(C2)CC(c2nc(-c4ccccc4)co2)C3)cc1 (centres unmarked) = 4.5
• COc1ccc(CNC(=O)NC2CC3(C2)CC(C(=O)N2CCCc4cc(OC(F)(F)F)ccc42)C3)cc1 (centres unmarked) = 2.9

1 = COc1ccc(CNC(=O)NC2CC3(C2)CN(C(=O)C2CCCc4ccccc42)C3)cc1 (centres unmarked)
2 = Cc1ccccc1C(=O)N1CC[C@]2(C1)C[C@@H](NC(=O)NCc1ccc(Cl)cc1)C2
3 = COc1ccc(CNC(=O)NC2CC3(C2)CC(C(=O)N2CCCc4cc(OC(F)F)ccc42)C3)cc1 (centres unmarked)
4 = O=C1CC(C(=O)NCC2CC3(C2)CC(NC(=O)NCc2ccc(Cl)cc2)C3)CCN1 (centres unmarked)
Inquiry: Put the entries in order of AC1.4 Human, starting with the largest number. List labels; respect the requested ordering.
Reply text: 1, 2, 4, 3
(1: 13.8 µM, 2: 6.2 µM, 4: 2.8 µM, 3: 0.3 µM)
